assay: antimalarial activity against Dd2 strain (AID 2302);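 also: 0% = DMSO untreated growth and 100% = chloroquine plus artemisinin killed control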; conditions: P. falciparum Dd2 in RBCs, LDH growth readout, 72 h; at 2 µM; hits give high values
Attribute: growth inhibition
measured_endpoint: growth inhibition (%)

molecule: CC(C)(C)c1ccc(CNC(=O)c2ccc(CNC3CCC(N)CC3)s2)cc1 (centres undefined)
measured_endpoint: growth inhibition
reported_measurement: 10
--
molecule: CCNC(=O)Nc1ccc(-c2ccc(-c3nc4c(C)cccc4[nH]3)s2)cc1
measured_endpoint: growth inhibition
reported_measurement: 13
--
molecule: CNC(=O)NC1CCN(Cc2c(-c3cccs3)nc3ccccc3c2C(=O)N[C@@H](C)C2CCCCC2)CC1
measured_endpoint: growth inhibition
reported_measurement: 97
--
molecule: O=C(NCCCCCN1CCC(c2c[nH]c3ccccc23)CC1)c1ccc(-c2cccnc2)cc1
measured_endpoint: growth inhibition
reported_measurement: 10
--
molecule: Oc1ccc2[nH]c(-c3cccc(F)c3)nc2c1CNCc1ccccc1
measured_endpoint: growth inhibition
reported_measurement: 55
--
molecule: O=C(NCc1ccccc1)NC(CCCN1CCC(Oc2cccc(Cl)c2)CC1)c1ccc(Cl)c(Cl)c1 (centres undefined)
measured_endpoint: growth inhibition
reported_measurement: 57
--
molecule: O=S(=O)(Nc1cccc(CCN2CCC(N3CCCCC3)CC2)c1)c1ccccc1C(F)(F)F
measured_endpoint: growth inhibition
reported_measurement: 32
--
molecule: O=C(NC1CCN(Cc2ccccc2)CC1)c1ccc(-c2nc3cc(Cl)c(F)cc3[nH]2)s1
measured_endpoint: growth inhibition
reported_measurement: 99
--
molecule: CN(c1ccccc1C(=O)Nc1ccccc1Oc1ccccc1)S(=O)(=O)c1ccccc1
measured_endpoint: growth inhibition
reported_measurement: 80
